Target: human m4 muscarinic acetylcholine receptor expressed in CHO cells (Homo sapiens)
Sequence (P08173 1-479): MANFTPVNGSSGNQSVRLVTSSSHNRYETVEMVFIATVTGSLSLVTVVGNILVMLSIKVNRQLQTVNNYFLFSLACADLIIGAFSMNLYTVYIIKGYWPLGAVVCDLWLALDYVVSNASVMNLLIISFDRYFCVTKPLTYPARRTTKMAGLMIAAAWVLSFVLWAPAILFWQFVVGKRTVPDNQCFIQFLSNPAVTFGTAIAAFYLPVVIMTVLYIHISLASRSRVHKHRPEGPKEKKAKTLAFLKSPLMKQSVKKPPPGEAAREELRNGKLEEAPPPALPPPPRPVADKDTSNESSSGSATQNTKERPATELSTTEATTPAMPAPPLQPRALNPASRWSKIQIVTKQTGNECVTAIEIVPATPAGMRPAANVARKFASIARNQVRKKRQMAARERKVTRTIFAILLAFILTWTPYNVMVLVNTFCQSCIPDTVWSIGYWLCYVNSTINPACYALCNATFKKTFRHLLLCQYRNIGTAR
endpoint.label: Ki (nM)

[1] O=C(CCNC(=O)CNC(=O)CC(c1ccccc1)(c1ccccc1)c1ccccc1)NC[C@H]1CCCN(CC2CCCCC2)C1 [Example 12]
[2] O=C(CCCCCNC(=O)CC(c1ccccc1)(c1ccccc1)c1ccccc1)NC[C@H]1CCCN(CC2CCCCC2)C1 [Example 28]
[3] CCCCCCC[N+]1(C)CCC[C@H](CNC(=O)CCNC(=O)CNC(=O)CC(c2ccccc2)(c2ccccc2)c2ccccc2)C1.[Br-] (stereo partly drawn) [Example 146]
Input line: Please order the records by their reported Ki, lowest number first. List the labels in the requested order.
Output line: 1, 2, 3
(1: 18 nM, 2: 36 nM, 3: 360 nM)
